- measurement-target: c-MET (purified GST fusion protein containing the Met kinase domain) (Homo sapiens, UniProt P08581)
- Construct: Purified GST fusion protein containing the Met kinase domain, Sugen, Inc
- Sequence (P08581 1078-1345 limits assumed): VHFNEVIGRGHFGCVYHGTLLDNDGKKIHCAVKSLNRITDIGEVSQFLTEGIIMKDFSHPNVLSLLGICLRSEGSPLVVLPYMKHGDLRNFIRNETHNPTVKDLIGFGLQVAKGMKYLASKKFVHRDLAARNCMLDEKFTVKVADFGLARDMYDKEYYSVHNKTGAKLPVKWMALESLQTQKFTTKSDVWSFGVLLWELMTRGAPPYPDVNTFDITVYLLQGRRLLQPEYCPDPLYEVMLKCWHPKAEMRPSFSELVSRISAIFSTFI
- assay-explanation: Met transphosphorylation assay (ELISA, poly(Glu,Tyr) 4:1 substrate)
- recorded-conditions: purified GST-Met kinase domain 10 ng/well
pIC50: −log10 of the molar value.

[
  {
    "smi": "COc1ccc(Cn2cnc3ncc(-c4ccc(F)cc4)nc32)cc1",
    "relation-qualifier": "=",
    "pIC50": 5.75
  },
  {
    "smi": "Fc1ccc(Cn2cnc3ncc(-c4cccc(OCCN5CCOCC5)c4)nc32)cc1",
    "relation-qualifier": "<",
    "pIC50": 4.70
  },
  {
    "smi": "Fc1ccc(Cn2nnc3ncc(-c4cccc(OCCN5CCOCC5)c4)nc32)cc1",
    "relation-qualifier": "=",
    "pIC50": 6.00
  },
  {
    "smi": "Fc1ccc(Cn2cnc3ncc(-c4ccc(F)cc4)nc32)cc1",
    "relation-qualifier": "<",
    "pIC50": 4.70
  },
  {
    "smi": "Fc1ccc(Cn2cnc3ncc(-c4cccs4)nc32)cc1",
    "relation-qualifier": "<",
    "pIC50": 4.70
  },
  {
    "smi": "Fc1ccc(Cn2nnc3ncc(-c4cccs4)nc32)cc1",
    "relation-qualifier": "=",
    "pIC50": 6.80
  },
  {
    "smi": "COc1ccc(Cn2cnc3ncc(Br)cc32)cc1",
    "relation-qualifier": "<",
    "pIC50": 4.70
  }
]
